# Target: Human JAK3 (Homo sapiens (Human), UniProt P52333)
# Sequence (P52333 whole entry): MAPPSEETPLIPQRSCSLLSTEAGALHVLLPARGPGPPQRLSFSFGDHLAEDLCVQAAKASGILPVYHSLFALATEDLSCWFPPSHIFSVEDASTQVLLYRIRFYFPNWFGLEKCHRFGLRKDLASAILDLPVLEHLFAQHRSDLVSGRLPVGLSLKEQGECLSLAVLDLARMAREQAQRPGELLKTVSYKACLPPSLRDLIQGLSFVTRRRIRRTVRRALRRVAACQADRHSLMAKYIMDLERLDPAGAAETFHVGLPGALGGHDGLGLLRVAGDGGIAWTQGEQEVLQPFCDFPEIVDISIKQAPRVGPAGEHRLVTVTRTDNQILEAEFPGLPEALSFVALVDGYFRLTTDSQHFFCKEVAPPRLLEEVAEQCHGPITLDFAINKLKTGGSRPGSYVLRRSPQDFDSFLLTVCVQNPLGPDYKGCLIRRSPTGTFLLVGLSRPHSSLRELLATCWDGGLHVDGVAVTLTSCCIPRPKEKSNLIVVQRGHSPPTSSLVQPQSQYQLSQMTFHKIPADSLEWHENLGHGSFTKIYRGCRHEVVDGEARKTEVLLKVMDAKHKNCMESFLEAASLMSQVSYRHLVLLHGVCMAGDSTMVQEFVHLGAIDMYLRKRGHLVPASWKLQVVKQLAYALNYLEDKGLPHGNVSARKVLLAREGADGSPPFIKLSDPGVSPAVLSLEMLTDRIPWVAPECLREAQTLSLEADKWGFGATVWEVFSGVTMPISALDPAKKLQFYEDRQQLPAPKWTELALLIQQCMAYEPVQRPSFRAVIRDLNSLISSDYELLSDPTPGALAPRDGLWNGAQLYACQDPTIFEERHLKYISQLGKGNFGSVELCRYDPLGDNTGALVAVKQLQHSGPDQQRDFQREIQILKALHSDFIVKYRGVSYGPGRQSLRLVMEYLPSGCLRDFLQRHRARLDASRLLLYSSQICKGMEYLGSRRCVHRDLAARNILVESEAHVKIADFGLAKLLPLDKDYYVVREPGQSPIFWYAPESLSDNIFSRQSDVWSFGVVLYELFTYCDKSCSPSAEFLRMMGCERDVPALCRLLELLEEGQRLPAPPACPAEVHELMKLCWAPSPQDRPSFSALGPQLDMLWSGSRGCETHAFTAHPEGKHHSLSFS
# Experiment Description: In vitro kinase inhibition test, JAK3 (33P-ATP filter scintillation)
# Type: biochemical
# Test Parameters: compound at 1 uM; read-out: JAK3 kinase-phosphorylation inhibitory level (% inhibition)
Measurement Type: inhibition at 1 µM (%)
# output: bare number, implied unit %

Give inhibition at 1 µM for the following compound: CN(c1ncnc2[nH]ccc12)[C@H]1CN(S(=O)(=O)c2ccc(F)cc2)CC12CC2
65

Give inhibition at 1 µM for the following compound: CN(c1ncnc2[nH]ccc12)[C@H]1CN(S(=O)(=O)c2ccccc2[N+](=O)[O-])CC12CC2
75

Give inhibition at 1 µM for the following compound: CN(c1ncnc2[nH]ccc12)[C@H]1CN(C(=O)c2ccncc2)CC12CC2
12

Give inhibition at 1 µM for the following compound: CN(c1ncnc2[nH]ccc12)[C@H]1CN(C(=O)Nc2ccc(Cl)cc2Cl)CC12CC2
25

Give inhibition at 1 µM for the following compound: CN(c1ncnc2[nH]ccc12)[C@H]1CN(C(=O)c2ccccc2C(F)(F)F)CC12CC2
-1

---
Give inhibition at 1 µM for the following compound: CCCCN1C[C@H](N(C)c2ncnc3[nH]ccc23)C2(CC2)C1
8

Give inhibition at 1 µM for the following compound: CC(C)COC(=O)N1CC(N(C)c2ncnc3[nH]ccc23)C2(CC2)C1 (centres unmarked)
29

Give inhibition at 1 µM for the following compound: CN(c1ncnc2[nH]ccc12)C1CN(C(=O)CN=[N+]=[N-])CC12CC2 (centres unmarked)
73

Give inhibition at 1 µM for the following compound: CN(c1ncnc2[nH]ccc12)[C@H]1CN(C(=O)NC2CCCCC2)CC12CC2
16

Give inhibition at 1 µM for the following compound: CC(=O)N1CCC(C(=O)N2C[C@H](N(C)c3ncnc4[nH]ccc34)C3(CC3)C2)CC1
23

* * *

# Target: Human TYK2 (Homo sapiens (Human), UniProt P29597)
# Sequence (P29597 whole entry): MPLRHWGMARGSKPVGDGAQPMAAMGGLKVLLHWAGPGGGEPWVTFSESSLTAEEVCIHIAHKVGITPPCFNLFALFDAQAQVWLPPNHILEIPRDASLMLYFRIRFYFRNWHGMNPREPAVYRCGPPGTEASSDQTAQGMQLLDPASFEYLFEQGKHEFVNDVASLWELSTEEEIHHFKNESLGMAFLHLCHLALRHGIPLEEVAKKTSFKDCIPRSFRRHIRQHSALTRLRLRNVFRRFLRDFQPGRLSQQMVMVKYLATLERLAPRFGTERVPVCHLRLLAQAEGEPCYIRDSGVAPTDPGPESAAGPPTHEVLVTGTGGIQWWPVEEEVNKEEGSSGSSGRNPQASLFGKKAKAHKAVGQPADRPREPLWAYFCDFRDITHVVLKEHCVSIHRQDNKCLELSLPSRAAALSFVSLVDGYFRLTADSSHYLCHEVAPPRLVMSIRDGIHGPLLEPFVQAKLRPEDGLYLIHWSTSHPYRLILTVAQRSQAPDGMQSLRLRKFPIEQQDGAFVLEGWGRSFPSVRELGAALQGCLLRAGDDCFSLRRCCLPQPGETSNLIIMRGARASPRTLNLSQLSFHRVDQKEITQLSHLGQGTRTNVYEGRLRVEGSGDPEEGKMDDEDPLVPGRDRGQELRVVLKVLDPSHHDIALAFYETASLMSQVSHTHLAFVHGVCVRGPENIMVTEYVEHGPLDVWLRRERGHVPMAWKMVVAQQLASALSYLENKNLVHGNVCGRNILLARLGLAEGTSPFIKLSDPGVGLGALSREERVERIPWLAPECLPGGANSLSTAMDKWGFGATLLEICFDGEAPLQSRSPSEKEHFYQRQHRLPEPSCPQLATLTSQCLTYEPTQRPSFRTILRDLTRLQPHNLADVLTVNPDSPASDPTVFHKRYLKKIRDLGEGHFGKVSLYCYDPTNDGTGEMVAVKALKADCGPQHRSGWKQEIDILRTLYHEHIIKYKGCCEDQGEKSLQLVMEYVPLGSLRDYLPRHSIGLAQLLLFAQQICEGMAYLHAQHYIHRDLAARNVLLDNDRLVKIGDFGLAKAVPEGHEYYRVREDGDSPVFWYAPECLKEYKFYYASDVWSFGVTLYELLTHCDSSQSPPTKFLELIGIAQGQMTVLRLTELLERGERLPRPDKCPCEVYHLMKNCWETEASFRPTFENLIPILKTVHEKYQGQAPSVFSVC
# Experiment Description: In vitro kinase inhibition test, TYK2 (33P-ATP filter scintillation)
# Assay type: biochemical
# Test Parameters: compound at 1 uM; read-out: TYK2 kinase-phosphorylation inhibitory level (% inhibition)
Measurement Type: inhibition at 1 µM
# output: numeric value plus its unit

Give inhibition at 1 µM for the following compound: CN(c1ncnc2[nH]ccc12)[C@H]1CN(C(=O)c2ccccc2C(F)(F)F)CC12CC2 [Example 17]
39%

Give inhibition at 1 µM for the following compound: CN(c1ncnc2[nH]ccc12)[C@H]1CN(S(=O)(=O)c2ccc3ccccc3c2)CC12CC2 [Example 49]
75%

Give inhibition at 1 µM for the following compound: CN(c1ncnc2[nH]ccc12)[C@@H]1CN(C(=O)CN=[N+]=[N-])CC12CC2 [Example 65]
14%

Give inhibition at 1 µM for the following compound: CN(c1ncnc2[nH]ccc12)[C@H]1CN(S(=O)(=O)N2CCCCC2)CC12CC2 [Example 50]
81%

Give inhibition at 1 µM for the following compound: CN(c1ncnc2[nH]ccc12)C1CN(C(=O)CC#N)CC12CC2 (racemic) [Example 55]
58%

Next item in the queue.
Give inhibition at 1 µM for the following compound: CN(c1ncnc2[nH]ccc12)[C@H]1CN(S(=O)(=O)N2CCOCC2)CC12CC2 [Example 51]
69%

* * *

The entries below are paired with their reported inhibition at 1 µM.
# Target: Human TYK2 (Homo sapiens (Human), UniProt P29597)
# Experiment Description: In vitro kinase inhibition test, TYK2 (33P-ATP filter scintillation)
# Type: biochemical
# Test Parameters: compound at 1 uM; read-out: TYK2 kinase-phosphorylation inhibitory level (% inhibition)

The examples below pair each entry with its known result.
Give inhibition at 1 µM for the following compound: CCC(=O)N1CC(N(C)c2ncnc3[nH]ccc23)C2(CC2)C1 (stereo not drawn)
20%

Give inhibition at 1 µM for the following compound: CN(c1ncnc2[nH]ccc12)C1CN(S(=O)(=O)CCN)CC12CC2 (stereo not drawn)
29%

Give inhibition at 1 µM for the following compound: CC(=O)NCC(=O)N1CC(N(C)c2ncnc3[nH]ccc23)C2(CC2)C1 (stereo not drawn)
-10%

Give inhibition at 1 µM for the following compound: CN(c1ncnc2[nH]ccc12)[C@H]1CN(C(=O)Nc2ccc(Cl)cc2Cl)CC12CC2
48%

Give inhibition at 1 µM for the following compound: CN(c1ncnc2[nH]ccc12)[C@H]1CN(C(=O)NC2CCCCC2)CC12CC2
15%

Give inhibition at 1 µM for the following compound: CCS(=O)(=O)N1CC(N(C)c2ncnc3[nH]ccc23)C2(CC2)C1 (racemic)
67%

Give inhibition at 1 µM for the following compound: CCC(=O)N1C[C@@H](N(C)c2ncnc3[nH]ccc23)C2(CC2)C1
0%

Give inhibition at 1 µM for the following compound: CN(c1ncnc2[nH]ccc12)[C@H]1CN(S(=O)(=O)c2ccc(F)cc2)CC12CC2
93%

Next item in the queue.
Give inhibition at 1 µM for the following compound: CCCCCN1C[C@H](N(C)c2ncnc3[nH]ccc23)C2(CC2)C1
3%
